# MEASUREMENT TARGET: uPAR-expressing HEC-265 human endometrial adenocarcinoma cells (Homo sapiens)
# Sequence (Q03405 23-335): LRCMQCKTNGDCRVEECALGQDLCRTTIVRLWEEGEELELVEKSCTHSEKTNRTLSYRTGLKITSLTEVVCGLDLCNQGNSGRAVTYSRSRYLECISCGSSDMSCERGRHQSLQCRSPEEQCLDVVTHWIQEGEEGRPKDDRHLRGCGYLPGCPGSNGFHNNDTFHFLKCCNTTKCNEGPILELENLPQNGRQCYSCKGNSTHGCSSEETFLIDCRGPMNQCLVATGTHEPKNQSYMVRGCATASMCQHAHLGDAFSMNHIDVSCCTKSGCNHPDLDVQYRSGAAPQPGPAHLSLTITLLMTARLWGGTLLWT
Where a SMILES comes first, the peptide text is derived from it. Bridges are numbered along the chain shown (N, C = ends). [ ]: non-standard residue; d: D form. The star is where a group is joined. DOTA = O=C(O)CN1CCN(CC(=O)O)CCN(CC(=O)*)CCN(CC(=O)O)CC1; Hyp = O=C(O)[C@@H]1C[C@@H](O)CN1; hPhe = N[C@@H](CCc1ccccc1)C(=O)O; Pentanoyl(4-Me) = CC(C)CCC(=O)*; Cit = NC(=O)NCCC[C@H](N)C(=O)O; Nva = CCC[C@H](N)C(=O)O; Pentanoyl = CCCCC(=O)*; Ava = NCCCCC(=O)O
Measured IC50 of individual entries

Field: example entries. Status: answers known.
CC[C@H](C)[C@@H]1NC(=O)[C@@H](C)NC(=O)[C@@H]2CCCN2C(=O)[C@H](Cc2ccccc2)NC(=O)[C@H](Cc2ccc(O)cc2)NC(=O)[C@H](CCC(N)=O)NC(=O)[C@@H](CCCCNC(=O)CN2CCN(CC(=O)O)CCN(CC(=O)O)CCN(CC(=O)O)CC2)NC(=O)[C@@H](NC(=O)CCC(C)C)CSSC[C@@H](C(N)=O)NC(=O)[C@H](CC(C)C)NC1=O [UPAR-130] ({Pentanoyl(4-Me)}-C[dK](DOTA)QYFP[dA]ILC-NH2; disulfide 1-10) ... ≥ 126 nM
CCCCC(=O)N[C@H]1CSSC[C@@H](C(N)=O)NC(=O)[C@H](CCC)NC(=O)[C@H]([C@@H](C)CC)NC(=O)[C@@H]2C[C@@H](O)CN2C(=O)[C@@H]2CCCN2C(=O)[C@H](Cc2ccccc2)NC(=O)[C@H](CCc2ccccc2)NC(=O)[C@H](CCC(N)=O)NC(=O)[C@H](CCCNC(=N)N)NC1=O [UPAR-366] (Pentanoyl-CRQ[hPhe]FP[Hyp]I[Nva]C-NH2; disulfide 1-10) ... 12.6 to 31.6 nM

Attention now turns to another entry.
Fill in: IC50 of CC[C@H](C)[C@@H]1NC(=O)[C@@H](C)NC(=O)[C@@H]2CCCN2C(=O)[C@H](Cc2ccccc2)NC(=O)[C@H](Cc2ccc(O)cc2)NC(=O)[C@H](CCC(N)=O)NC(=O)[C@H](CCCNC(N)=O)NC(=O)[C@@H](NC(=O)CCCCN)CSSC[C@@H](C(N)=O)NC(=O)[C@H](CC(C)C)NC1=O [UPAR-394] (H-[Ava]C[Cit]QYFP[dA]ILC-NH2; disulfide 2-11) is ___ ≥ 126 nM

---

# MEASUREMENT TARGET: human uPAR (uPAR-Fc) (Homo sapiens, UniProt Q03405)
# Construct: comprising amino acids Leu23-Arg303 according to UniProt entry Q03405.1; purchased R&D Systems 10378-UK-100
# TEST PROTOCOL: Surface plasmon resonance (SPR) assay, single cycle kinetics
# Format: binding
# PARTICULARS: pKD category for uPAR SPR activity assay; uPAR-Fc on Protein A-Chip, 25°C; read-out: pKD CAT (converted)
Where a SMILES comes first, the peptide text is derived from it. Bridges are numbered along the chain shown (N, C = ends). [ ]: non-standard residue; d: D form. The star is where a group is joined. DOTA = O=C(O)CN1CCN(CC(=O)O)CCN(CC(=O)*)CCN(CC(=O)O)CC1; Pro(cis-4-F) = O=C(O)[C@@H]1C[C@H](F)CN1; Hyp = O=C(O)[C@@H]1C[C@@H](O)CN1; Cit = NC(=O)NCCC[C@H](N)C(=O)O; Butoxycarbonyl = CCCCOC(=O)*; Phg = N[C@H](C(=O)O)c1ccccc1; Orn = NCCC[C@H](N)C(=O)O; Nva = CCC[C@H](N)C(=O)O; Pentanoyl = CCCCC(=O)*
READOUT KIND: Kd

Field: example entries. Status: answers known.
CCCCC(=O)N[C@H]1CSSC[C@@H](C(N)=O)NC(=O)[C@H](CCC)NC(=O)[C@H]([C@@H](C)CC)NC(=O)[C@@H]2C[C@@H](O)CN2C(=O)[C@@H]2CCCN2C(=O)[C@H](Cc2ccccc2)NC(=O)[C@H](Cc2ccc(O)cc2)NC(=O)[C@H](CCCCNC(=O)CN2CCN(CC(=O)O)CCN(CC(=O)O)CCN(CC(=O)O)CC2)NC(=O)[C@H]([C@@H](C)O)NC1=O [UPAR-301] (Pentanoyl-CTK(DOTA)YFP[Hyp]I[Nva]C-NH2; disulfide 1-10) ... < 1.58 nM
CCCCOC(=O)N[C@H]1CSSC[C@@H](C(N)=O)NC(=O)[C@H](CCC)NC(=O)[C@H]([C@@H](C)CC)NC(=O)[C@@H]2C[C@@H](O)CN2C(=O)[C@@H]2C[C@H](F)CN2C(=O)[C@H](Cc2ccccc2)NC(=O)[C@H](Cc2ccc(O)cc2)NC(=O)[C@H](CCCNC(=O)CN2CCN(CC(=O)O)CCN(CC(=O)O)CCN(CC(=O)O)CC2)NC(=O)[C@H]([C@@H](C)O)NC1=O [UPAR-192] (Butoxycarbonyl-CT[Orn](DOTA)YF[Pro(cis-4-F)][Hyp]I[Nva]C-NH2; disulfide 1-10) ... < 1.58 nM
CCCCOC(=O)N[C@H]1CSSC[C@@H](C(N)=O)NC(=O)[C@H](CC(C)C)NC(=O)[C@H]([C@@H](C)CC)NC(=O)[C@@H](C)NC(=O)[C@@H]2CCCN2C(=O)[C@H](Cc2ccccc2)NC(=O)[C@H](Cc2ccc(O)cc2)NC(=O)[C@H](CCC(N)=O)NC(=O)[C@H](CCCNC(N)=O)NC1=O [UPAR-155] (Butoxycarbonyl-C[Cit]QYFP[dA]ILC-NH2; disulfide 1-10) ... < 1.58 nM
CCCCOC(=O)N[C@H]1CSSC[C@@H](C(N)=O)NC(=O)[C@H](CCC)NC(=O)[C@H]([C@@H](C)CC)NC(=O)[C@@H]2C[C@@H](O)CN2C(=O)[C@@H]2CCCN2C(=O)[C@H](Cc2ccccc2)NC(=O)[C@H](Cc2ccc(O)cc2)NC(=O)[C@H](CCCCNC(=O)CN2CCN(CC(=O)O)CCN(CC(=O)O)CCN(CC(=O)O)CC2)NC(=O)[C@H]([C@@H](C)O)NC1=O [UPAR-248] (Butoxycarbonyl-CTK(DOTA)YFP[Hyp]I[Nva]C-NH2; disulfide 1-10) ... < 1.58 nM
CCCCC(=O)N[C@H]1CSSC[C@@H](C(N)=O)NC(=O)[C@H](CCC)NC(=O)[C@H]([C@@H](C)CC)NC(=O)[C@@H]2C[C@@H](O)CN2C(=O)[C@@H]2CCCN2C(=O)[C@H](c2ccccc2)NC(=O)[C@H](Cc2ccc(O)cc2)NC(=O)[C@H](CCC(N)=O)NC(=O)[C@H](CCCNC(=N)N)NC1=O [UPAR-203] (Pentanoyl-CRQY[Phg]P[Hyp]I[Nva]C-NH2; disulfide 1-10) ... 10 to 100 nM

Reported Kd for human uPAR (uPAR-Fc) (Homo sapiens, UniProt Q03405), given CC[C@H](C)[C@@H]1NC(=O)[C@H](C)NC(=O)[C@@H]2CCCN2C(=O)[C@H](Cc2ccccc2)NC(=O)[C@H](Cc2ccc(O)cc2)NC(=O)[C@H](CCSC)NC(=O)[C@H](CCCNC(=N)N)NC(=O)[C@@H](NC(=O)[C@H](CC(C)C)NC(=O)[C@H](CC(=O)O)NC(=O)[C@@H](N)CCSC)CSSC[C@@H](C(N)=O)NC(=O)[C@H](CC(C)C)NC1=O [UPAR-312] (H-MDLCRMYFPAILC-NH2; disulfide 4-13) ? 1.58 to 10 nM

---

Measured Kd of individual entries
# MEASUREMENT TARGET: human uPAR (uPAR-Fc) (Homo sapiens, UniProt Q03405)
# Construct: comprising amino acids Leu23-Arg303 according to UniProt entry Q03405.1; purchased R&D Systems 10378-UK-100
# TEST PROTOCOL: Surface plasmon resonance (SPR) assay, single cycle kinetics
# Format: binding
# PARTICULARS: pKD category for uPAR SPR activity assay; uPAR-Fc on Protein A-Chip, 25°C; read-out: pKD CAT (converted)
Where a SMILES comes first, the peptide text is derived from it. Bridges are numbered along the chain shown (N, C = ends). [ ]: non-standard residue; d: D form. The star is where a group is joined. DOTA = O=C(O)CN1CCN(CC(=O)O)CCN(CC(=O)*)CCN(CC(=O)O)CC1; Pro(cis-4-F) = O=C(O)[C@@H]1C[C@H](F)CN1; NMeR = CN[C@@H](CCCNC(=N)N)C(=O)O; Hyp = O=C(O)[C@@H]1C[C@@H](O)CN1; hArg = N=C(N)NCCCC[C@H](N)C(=O)O; Pentanoyl(4-Me) = CC(C)CCC(=O)*; Cit = NC(=O)NCCC[C@H](N)C(=O)O; Butoxycarbonyl = CCCCOC(=O)*; Nva = CCC[C@H](N)C(=O)O; Pentanoyl = CCCCC(=O)*; Butyryl = CCCC(=O)*

Field: example entries. Status: answers known.
CC[C@H](C)[C@@H]1NC(=O)[C@@H](C)NC(=O)[C@@H]2CCCN2C(=O)[C@H](Cc2ccccc2)NC(=O)[C@H](Cc2ccc(O)cc2)NC(=O)[C@H](CCC(N)=O)NC(=O)[C@H](CCCNC(N)=O)NC(=O)[C@@H](NC(=O)CCC(C)C)CSSC[C@@H](C(N)=O)NC(=O)[C@H](CC(C)C)NC1=O [UPAR-338] ({Pentanoyl(4-Me)}-C[Cit]QYFP[dA]ILC-NH2; disulfide 1-10) ... < 1.58 nM
CCCCOC(=O)N[C@H]1CSSC[C@@H](C(N)=O)NC(=O)[C@H](CCC)NC(=O)[C@H]([C@@H](C)CC)NC(=O)[C@@H]2C[C@@H](O)CN2C(=O)[C@@H]2C[C@H](F)CN2C(=O)[C@H](Cc2ccccc2)NC(=O)[C@H](Cc2ccc(O)cc2)NC(=O)[C@H](CCCCNC(=O)CN2CCN(CC(=O)O)CCN(CC(=O)O)CCN(CC(=O)O)CC2)NC(=O)[C@H]([C@@H](C)O)NC1=O [UPAR-237] (Butoxycarbonyl-CTK(DOTA)YF[Pro(cis-4-F)][Hyp]I[Nva]C-NH2; disulfide 1-10) ... < 1.58 nM
CC[C@H](C)[C@@H]1NC(=O)[C@@H](C)NC(=O)[C@@H]2CCCN2C(=O)[C@H](Cc2ccccc2)NC(=O)[C@H](Cc2ccc(O)cc2)NC(=O)[C@H](CCC(N)=O)NC(=O)[C@H](CCCNC(=N)N)N(C)C(=O)[C@@H](NC(=O)CCC(C)C)CSSC[C@@H](C(N)=O)NC(=O)[C@H](CC(C)C)NC1=O [UPAR-287] ({Pentanoyl(4-Me)}-C[NMeR]QYFP[dA]ILC-NH2; disulfide 1-10) ... > 100 nM

Fill in: Kd of CCCC(=O)N[C@H]1CSSC[C@@H](C(N)=O)NC(=O)[C@H](CC(C)C)NC(=O)[C@H]([C@@H](C)CC)NC(=O)[C@@H](C)NC(=O)[C@@H]2CCCN2C(=O)[C@H](Cc2ccccc2)NC(=O)[C@H](Cc2ccc(O)cc2)NC(=O)[C@H](CCC(N)=O)NC(=O)[C@H](CCCNC(N)=O)NC1=O [UPAR-139] (Butyryl-C[Cit]QYFP[dA]ILC-NH2; disulfide 1-10) is ___ 1.58 to 10 nM

Try this compound too: CCCCC(=O)N[C@H]1CSSC[C@@H](C(N)=O)NC(=O)[C@H](CCC)NC(=O)[C@H]([C@@H](C)CC)NC(=O)[C@@H]2C[C@@H](O)CN2C(=O)[C@@H]2CCCN2C(=O)[C@H](Cc2ccccc2)NC(=O)[C@H](Cc2ccc(O)cc2)NC(=O)[C@H](CCCCNC(=O)CN2CCN(CC(=O)O)CCN(CC(=O)O)CCN(CC(=O)O)CC2)NC(=O)[C@H](CCCCNC(=N)N)NC1=O [UPAR-278] (Pentanoyl-C[hArg]K(DOTA)YFP[Hyp]I[Nva]C-NH2; disulfide 1-10) < 1.58 nM
